# Assay name: Metabolic stability of the compound in ICR mouse liver microsome assessed as compound remaining at 1 uM in presence of buffer
# Type: ADME
# Test context: liver microsomes, read-out: Stability
Items are presented alongside their recorded remaining at 1 µM.
// note: answer is a bare numeric in %

Would you please look over these solved cases?
O=C(CCC1=CCCN(Cc2cccc(Cl)c2)C1=O)NO; 103
O=C(CCC1=CCCN(CCc2ccccc2F)C1=O)NO; 104
O=C(CCC1=CCCN(Cc2ccc(Br)cc2F)C1=O)NO; 102

Per the records, this compound ( O=C1CC2(CCCC2)CC(=O)N1CCCCN1CCN(c2ncccn2)CC1 [BUSPIRONE] ) has remaining at 1 µM equal to 106

Lab book: remaining at 1 µM of Cc1ccc(CCCCN2CCC=C(CCC(=O)NO)C2=O)cc1 noted as 99.3

remaining at 1 µM reading for CC(C)(C)c1ccc(CCCN2CCC=C(CCC(=O)NO)C2=O)cc1 : 103

// recorded remaining at 1 µM for O=C(CCC1=CCCN(CCCCc2ccccc2)C1=O)NO : 97.3

The reported remaining at 1 µM of the compound O=C(CCC1=CCCN(CCc2ccc(Br)cc2)C1=O)NO was 104

---

# Assay name: Tmax in BALB/c mouse at 20 mg/kg, po
# Assay type: ADME, organism-based
# Parameters: dose 20 mg/kg, route oral
# Test context: in vivo
Property: Tmax (min)
Number only, in min; omit the unit.

O=C(CCC1=CCCN(CCCCc2ccccc2)C1=O)NO; 15

Per the records, this molecule ( O=C(CCC1=CCCN(Cc2ccc(Br)cc2F)C1=O)NO ) has Tmax equal to 15

---

# Assay name: Half life in BALB/c mouse at 20 mg/kg, po
# Assay type: ADME, organism-based
# Set-up: dose 20 mg/kg, route oral
# Test context: in vivo
Property: half-life (min)
# number only, unit min dropped from output

Reported half-life of O=C(CCC1=CCCN(CCCCc2ccccc2)C1=O)NO : 9

---

Entries annotated with measured Cmax
# Assay name: Cmax in BALB/c mouse at 20 mg/kg, po
# Format: ADME, organism-based
# Design: dose 20 mg/kg, route oral
# Test context: in vivo
// units = ng/mL; emit number, no label

O=C(CCC1=CCCN(CCCCc2ccccc2)C1=O)NO; 197

We next turn to a different molecule, shown below.
Notebook: O=C(CCC1=CCCN(Cc2ccc(Br)cc2F)C1=O)NO , Cmax read as 1390

---

# Tested on: PC-3
# Assay name: Growth inhibition of human PC3 cells
# Assay type: functional, cell-based
Property: GI50 (µM)
# value in µM; strip the unit string

O=C(CCC1=CCCN(CCc2ccc(C(F)(F)F)cc2)C1=O)NO; 4.82
O=C(CCC1=CCCN(CCc2cccc(C(F)(F)F)c2)C1=O)NO; 2.47
O=C(CCC1=CCCN(Cc2ccc(Br)cc2F)C1=O)NO; 5.81
Cc1ccc(CCN2CCC=C(CCC(=O)NO)C2=O)cc1; 6.34
O=C(CCC1=CCCN(CCCCc2ccccc2)C1=O)NO; 3.25

Query O=C(CCC1=CCCN(CCCCc2ccc(Br)cc2)C1=O)NO yields GI50 of 4.81

GI50 reported for this compound O=C(CCC1=CCCN(CCc2ccccc2Cl)C1=O)NO : 7.25

The measured GI50 associated with O=C(CCC1=CCCN(CCc2cccc(Br)c2)C1=O)NO reads 0.81

Just so you know, measured GI50 for CC(C)(C)c1ccc(CN2CCC=C(CCC(=O)NO)C2=O)cc1 came out at 5.19

Noted for CC(C)(C)c1ccc(CCCN2CCC=C(CCC(=O)NO)C2=O)cc1 : its GI50 reads 1.13

For reference, reported GI50 for O=C(CCC1=CCCN(CCCc2ccc3ccccc3c2Br)C1=O)NO stands at 0.3

The compound listed as O=C(CCC1=CCCN(CCCCc2ccc(Cl)cc2)C1=O)NO shows GI50 equal to 4.15

Input O=C(CCC1=CCCN(CCc2ccccc2F)C1=O)NO . Output GI50: 7.07

Data point: O=C(CCC1=CCCN(CCc2ccc(Br)cc2)C1=O)NO ; GI50 = 3.41

Query Cc1ccc(CCCCN2CCC=C(CCC(=O)NO)C2=O)cc1 yields GI50 of 2.53

Entry N#Cc1cccc(CN2CCC=C(CCC(=O)NO)C2=O)c1 ; GI50 = 8.48

Note to self: GI50 recorded for O=C(CCC1=CCCN(CCc2ccc3ccccc3c2)C1=O)NO was 0.39

---

A collection of compounds and their measured Papp
# Assay name: Apparent permeability across human Caco-2 cells
# Type: ADME, cell-based
Give the quantity in ×10⁻⁶ cm/s, number only.

Examples with their reported Papp follow.
CNC(=C[N+](=O)[O-])NCCSCc1ccc(CN(C)C)o1; 1.5
O=C(CCC1=CCCN(CCCCc2ccccc2)C1=O)NO; 23.9

// Papp lookup, compound = COCCc1ccc(OCC(O)CNC(C)C)cc1 (stereo not drawn) , result: 29.6

---

# Assay name: Clearance in BALB/c mouse at 5 mg/kg, iv
# Assay type: ADME, organism-based
# Set-up: dose 5 mg/kg, route intravenous
# Test context: in vivo
Property: clearance (mL/min/kg)
Field: numeric (mL/min/kg). Do not append units.

Query O=C(CCC1=CCCN(CCCCc2ccccc2)C1=O)NO yields clearance of 49.8

---

Below: a set of entries, each annotated with reported AUC(0-t) at 4 h.
# Assay name: AUC (0 to 5 hrs) in BALB/c mouse at 20 mg/kg, po
# Assay type: ADME, organism-based
# Parameters: dose 20 mg/kg, route oral
# Test context: plasma
Unit µg·h/mL implied. Number only.

O=C(CCC1=CCCN(Cc2ccc(Br)cc2F)C1=O)NO; 0.732

GET /value?item= O=C(CCC1=CCCN(CCCCc2ccccc2)C1=O)NO &field=AUC(0-t) at 4 h returns 0.0644

---

# Assay name: AUC (0 to infinity) in BALB/c mouse at 5 mg/kg, iv
# Format: ADME, organism-based
# Set-up: time infinity, dose 5 mg/kg, route intravenous
# Test context: plasma
Measured AUC(0-inf), listed per entry.
Express your answer in ng·h/mL, writing the number without its unit.

O=C(CCC1=CCCN(Cc2ccc(Br)cc2F)C1=O)NO; 2590

Let's switch to this compound now.
Value of AUC(0-inf) reported for the compound O=C(CCC1=CCCN(CCCCc2ccccc2)C1=O)NO is 1670

---

# Assay name: Metabolic stability of the compound in ICR mouse liver microsome assessed as compound remaining at 1 uM
# Format: ADME
# Test context: liver microsomes, read-out: Stability
Property: remaining at 1 µM (%)
Quick note: give the figure in %, leave out the unit.

# example entries with known answers
O=C(CCC1=CCCN(CCCCc2ccccc2)C1=O)NO; 8.5
O=C(CCC1=CCCN(CCc2ccccc2F)C1=O)NO; 52.7

Just so you know, measured remaining at 1 µM for O=C(CCC1=CCCN(CCc2ccc(Br)cc2)C1=O)NO came out at 56.6

remaining at 1 µM reading for O=C1CC2(CCCC2)CC(=O)N1CCCCN1CCN(c2ncccn2)CC1 : 96.6

---

# System: PC-3
# Assay name: Growth inhibition of human PC3 cells
# Format: functional, cell-based
Property: GI50 (µM)
Expressed in µM, but write only the number.

O=C(CCC1=CCCN(CCc2ccc(Cl)cc2)C1=O)NO; 1.51

Lab note: CC(C)(C)c1ccc(CCN2CCC=C(CCC(=O)NO)C2=O)cc1 gave GI50 of 0.5

The reported GI50 of the compound O=C(CCC1=CCCN(Cc2cccc(Cl)c2)C1=O)NO was 4.65

Briefly, GI50 measured for COc1cccc(CCN2CCC=C(CCC(=O)NO)C2=O)c1 : 4.84
